test-system: Cannabinoid receptor 1 (Homo sapiens, UniProt P21554)
Sequence (P21554 whole entry): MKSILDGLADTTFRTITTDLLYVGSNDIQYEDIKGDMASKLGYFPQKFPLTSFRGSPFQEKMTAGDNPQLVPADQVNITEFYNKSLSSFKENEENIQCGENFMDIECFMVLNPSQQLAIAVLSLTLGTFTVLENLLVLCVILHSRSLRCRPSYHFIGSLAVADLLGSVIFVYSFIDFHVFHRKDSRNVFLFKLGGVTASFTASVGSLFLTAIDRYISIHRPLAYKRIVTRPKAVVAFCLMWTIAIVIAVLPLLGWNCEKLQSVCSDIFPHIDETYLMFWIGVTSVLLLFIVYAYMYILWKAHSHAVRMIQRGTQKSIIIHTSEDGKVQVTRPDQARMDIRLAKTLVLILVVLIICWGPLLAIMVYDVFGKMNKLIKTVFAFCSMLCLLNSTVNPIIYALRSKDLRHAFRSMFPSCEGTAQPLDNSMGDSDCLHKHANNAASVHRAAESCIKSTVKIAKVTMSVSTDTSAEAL
procedure-text: Displacement of [3H]-CP-55,940 from recombinant human CB1R expressed in HEK293 cell membranes
pKi: −log10 of the molar value.

| molecule | censoring-qualifier | pKi |
| --- | --- | --- |
| CN1N=CC2C1C(O)=C(C(=O)NC13CC4CC(CC(O)(C4)C1)C3)C(=O)N2CCCCF (centres undefined) | = | 6.79 |
| Cn1cc2c(n1)c(O)c(C(=O)NC13CC4CC(CC(C4)C1)C3)c(=O)n2CCCCO | < | 6.00 |
| CN1N=CC2C1C(O)=C(C(=O)NC13CC4CC(CC(C4)C1)C3)C(=O)N2CCCCF (centres undefined) | = | 7.41 |
| Cn1cc2c(n1)c(O)c(C(=O)NC13CC4CC(CC(O)(C4)C1)C3)c(=O)n2CCCCF | < | 6.00 |
| CCCCCn1c(=O)c(C(=O)NC23CC4CC(CC(C4)C2)C3)c(O)c2nn(C)cc21 | = | 7.47 |
| CCCn1c(=O)c(C(=O)NC23CC4CC(CC(C4)C2)C3)c(O)c2nn(CCOC(C)=O)cc21 | < | 6.00 |
| CCCCCn1c(=O)c(C(=O)NC23CC4CC(CC(O)(C4)C2)C3)c(O)c2nn(CCO)cc21 | = | 6.31 |
| CCCCn1c(=O)c(C(=O)NC23CC4CC(CC(C4)C2)C3)c(O)c2nn(C)cc21 | = | 6.64 |
| Cn1cc2c(n1)c(O)c(C(=O)NC13CC4CC(CC(C4)C1)C3)c(=O)n2CCCCF | = | 6.27 |

---

compounds and their reported IC50
procedure-text: Cytotoxicity against human NHAC-kn assessed as reduction in cell viability after 1 to 14 days by Neutral red dye-based UV-visible spectrophotometer analysis
Assay type: functional
quantity-name: IC50 (µM)

| compound | result-number |
| --- | --- |
| Cn1cc2c(n1)c(O)c(C(=O)NC13CC4CC(CC(O)(C4)C1)C3)c(=O)n2CCCCF | 12.5 |
| CCCCCn1c(=O)c(C(=O)NC23CC4CC(CC(O)(C4)C2)C3)c(O)c2nn(CCO)cc21 | 2.5 |
| CCCCN1C(=O)C(C(=O)NC23CC4CC(CC(O)(C4)C2)C3)=C(O)C2C1C=NN2C (centres undefined) | 7.5 |
| Cn1cc2c(n1)c(O)c(C(=O)NC13CC4CC(CC(C4)C1)C3)c(=O)n2CCCCF | 7.5 |

---

procedure-text: Cytotoxicity against human NHAC-kn assessed as reduction in cell viability after 1 to 14 days by Neutral red dye-based UV-visible spectrophotometer analysis
Assay type: functional
pIC50: −log10 of the molar value.
quantity-name: pIC50

| molecule | quantity-name | result-number |
| --- | --- | --- |
| CCCCCn1c(=O)c(C(=O)NC23CC4CC(CC(C4)C2)C3)c(O)c2nn(CCO)cc21 | pIC50 | 5.60 |
| CCCCn1c(=O)c(C(=O)NC23CC4CC(CC(C4)C2)C3)c(O)c2nn(CCO)cc21 | pIC50 | 5.60 |
| Cn1cc2c(n1)c(O)c(C(=O)NC13CC4CC(CC(C4)C1)C3)c(=O)n2CCCCO | pIC50 | 4.90 |
| CCCCn1c(=O)c(C(=O)NC23CC4CC(CC(C4)C2)C3)c(O)c2nn(C)cc21 | pIC50 | 5.12 |
| CCCCn1c(=O)c(C(=O)NC23CC4CC(CC(O)(C4)C2)C3)c(O)c2nn(C)cc21 | pIC50 | 5.60 |
| CN1N=CC2C1C(O)=C(C(=O)NC13CC4CC(CC(C4)C1)C3)C(=O)N2CCCCF (centres undefined) | pIC50 | 4.90 |
| CN1N=CC2C1C(O)=C(C(=O)NC13CC4CC(CC(O)(C4)C1)C3)C(=O)N2CCCCF (centres undefined) | pIC50 | 5.12 |
| CC(=O)OCCCCn1c(=O)c(C(=O)NC23CC4CC(CC(C4)C2)C3)c(O)c2nn(C)cc21 | pIC50 | 5.12 |
| CCCCN1C(=O)C(C(=O)NC23CC4CC(CC(C4)C2)C3)=C(O)C2C1C=NN2C (centres undefined) | pIC50 | 4.90 |

Taken from ChEMBL document CHEMBL4616678.
